Tested on: SK-MEL-5 melanoma
Test: NCI-60 one-dose screen, 48 h
Details: 10 µM unless noted
This is part of a sample that, as a whole, favours compounds with a hit. Of some 83,000 tested, about 20% had one in any assay. Active and inactive are the calls of the source. How the source made its calls: active means growth percent below 10; inactive means the rest.
Outcomes you can answer with include only these: true (1) for active, false (0) for inactive

INSERT INTO assay_data (compound, assigned_class) VALUES
  ('CC(O)Cc1c[nH]c(=O)[nH]c1=O (configuration not stated)', 'false (0)');

For CCCCO[C@@H]1C=C2[C@H]3CC(C)(C)C(=O)C[C@]3(C(=O)O[C@@H]3O[C@H](CO[C@@H]4O[C@H](CO)[C@@H](OC5OC(C)C(O)C(O)C5O)[C@H](O)[C@H]4O)[C@@H](O)[C@H](O)[C@H]3O)CC[C@@]2(C)[C@]2(C)CC[C@H]3C(C)(C)C(=O)CC[C@]3(C)[C@@H]12 (some centres not stated) , which call appears in the assay record?
false (0)

For `CC(C)(C)c1ccc(S(=O)(=O)Oc2ccc(-c3sc4cc(OS(=O)(=O)c5ccc(C(C)(C)C)cc5)ccc4c3C(=O)c3ccc(OCCN4CCCCC4)cc3)cc2)cc1` , which call appears in the assay record?
false (0)

For `COc1c2c(cc3c1C(=O)N[C@@H]1[C@@H](O)[C@@H](O)[C@H](O)C[C@@H]31)OCCO2` , which call appears in the assay record?
false (0)

For COC1C(O)CC(OC2CC(OC3CC(O[C@@H]4C(=O)c5c(cc6cc(OC7CC(OC8CC(O)C(O)C(C)O8)C(O)C(C)O7)c(C)c(O)c6c5O)CC4[C@H](OC)C(=O)C(C)=O)OC(C)C3O)OC(C)C2O)OC1C (some centres not stated) , which call appears in the assay record?
true (1)

* * *

System: HOP-62 NSCLC
Assay: NCI-60 one-dose screen, 48 h (100 = growth as untreated, 0 = no growth, -100 = all killed)
Settings: 10 µM unless noted
Method: Growth inhibition of the HOP-62 human Non-Small Cell Lung tumor cell line is measured as a screen for anti-cancer activity. Cells are grown in 96 well plates and exposed to the test compound for 48 hours. Compounds are tested at a single concentration, which is 10^-5 M for most compounds. The reported endpoint is percent growth (GI% or GIPRCNT), where numbers from 0 - 100% represent growth inhibition, and numbers from -100% - 0 represent cell death. […]
Compounds without any hit were thinned out: in the full panel of roughly 83,000, 20% have a hit.
Overview of reported growth across a group of compounds:
Write the value in % as a bare number.

Reference set (5 entries):
INSERT INTO results (compound, measure_name, recorded_number) VALUES
  ('C[C@H](c1nc2ccc(C#N)cc2[nH]1)[C@H]1CC[C@H]2[C@@H]3CCC4=CC(=O)CC[C@]4(C)[C@H]3CC[C@]12C', 'growth', 101),
  ('CCOC(=O)/C(=C(/C)NCC(C)C)c1cc(O)c(O)c2c(C)cc(=O)[nH]c12', 'growth', 38.2),
  ('NS(=O)(=O)c1ccc(C(=O)N=Nc2c(O)[nH]c3ccc(Cl)cc23)cc1', 'growth', 100),
  ('COc1ccccc1/C=C/C(=O)Nc1ccc(F)cc1', 'growth', 88.7),
  ('Clc1ccc(Nc2nnc(CNc3ccccc3)c3ccccc23)cc1', 'growth', 27.4);

Would you mind telling me what growth value was observed for `CCCCCCCCCCOC(=O)c1nn(C(C)=O)c2cc(C)c(C)cc12` ?
94.5

Would you mind telling me what growth value was observed for `COc1cc(/C=C2\C(=O)N(CCCOc3cc(O)c4c(=O)cc(-c5ccccc5)oc4c3)c3ccccc32)cc(OC)c1O` ?
71.7

Would you mind telling me what growth value was observed for `CCOC(=O)c1[nH]cc2c1CCc1sc(Nc3ccccn3)nc1-2` ?
92.3

Would you mind telling me what growth value was observed for `ClC(Cl)c1nc(-c2ccccc2)n2nc(-c3ccccc3)cc2n1` ?
-3.61

Would you mind telling me what growth value was observed for `Cc1cc(N2CCN(CC(=O)Nc3ccc4c(ccn4Cc4ccccc4)c3)CC2)nc(N2CCOCC2)n1` ?
91.1

Would you mind telling me what growth value was observed for O=S(Nc1ccccc1)c1ccc(Cl)cc1 (stereo not given) ?
92

Would you mind telling me what growth value was observed for CCCCC#Cc1c(I)n(C2OC(CO[Si](C)(C)C(C)(C)C)C3OC(C)(C)OC32)c(=O)n(C(=O)c2ccccc2)c1=O (stereo not given) ?
94.8

Would you mind telling me what growth value was observed for `CN(C)CCn1c(=O)c2ccccc2n2nc3ccccc3c12` ?
90.9

Would you mind telling me what growth value was observed for `O=C(/C=C/c1ccco1)Nc1ncc(Cc2cc(Cl)ccc2Cl)s1` ?
17.8

Cited source: PubChem BioAssay (NCI)
